For each entry below, report its pKd value.
# assayed-target: PICK1, Q9NRD5
# Sequence (Q9NRD5 17-115): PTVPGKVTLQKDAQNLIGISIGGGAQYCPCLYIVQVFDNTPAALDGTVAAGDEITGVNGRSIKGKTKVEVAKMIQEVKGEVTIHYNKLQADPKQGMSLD
# method-notes: holdup assay
# Design: key: below the threshold = too weak to quantify, mostly under pKd 3.1 to 4
# assay-conditions: plain residues with an end cap or a label only (N-terminal biotin on a linker: ado-ado)
Answers are plain numbers.

[[record]]
binder = "LPHGHSTTRV [NLGN4X, Q8N0W4]"
measured_endpoint = "pKd"
observed_result = 4.27


Consider the additional binder presented here.
## Task Which pKd is listed for PRISRSQSEL [CCDC134, Q9H6E4] ?
## Result 4.14
